Target: T1, PvMYB4a (Panicum virgatum)
T1 chain: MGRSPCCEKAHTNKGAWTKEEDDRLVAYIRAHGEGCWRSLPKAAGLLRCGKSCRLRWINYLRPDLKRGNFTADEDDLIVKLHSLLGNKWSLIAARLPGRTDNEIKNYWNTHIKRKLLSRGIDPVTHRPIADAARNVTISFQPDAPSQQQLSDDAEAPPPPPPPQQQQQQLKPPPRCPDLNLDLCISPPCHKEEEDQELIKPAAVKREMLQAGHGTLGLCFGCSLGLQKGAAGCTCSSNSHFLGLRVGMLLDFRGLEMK
Test: EMSA; 5 mM MgCl2, 50 mM KCl, pH 7.5, 4 C
Conditions: tags: N-terminal His (pDEST17), E. coli BL21 DE3; label: biotin
observation_type: binding result

AC-II x3 EMSA probe (dsDNA) DNA 1: CGGTACCAGTCCACCAACCGCCACCAACCGCCACCAACCGCTGTTCTCGA DNA 2: TCGAGAACAGCGGTTGGTGGCGGTTGGTGGCGGTTGGTGGACTGGTACCG :: binds
AC-I x3 EMSA probe (dsDNA) DNA 1: CGGTACCAGTCCACCTACCGCCACCTACCGCCACCTACCGCTGTTCTCGA DNA 2: TCGAGAACAGCGGTAGGTGGCGGTAGGTGGCGGTAGGTGGACTGGTACCG :: binds
AC-III x3 EMSA probe (dsDNA) DNA 1: CCAGTCCACCTAACTCTACCTAACTCTACCTAACGCTGTTC DNA 2: GAACAGCGTTAGGTAGAGTTAGGTAGAGTTAGGTGGACTGG :: binds
